Attribute Measured: melting point

>>> result("Oc1nc(S)nc(/N=C/c2ccc(Cl)cc2)c1/N=C/c1ccc(Cl)cc1")
"260 to 262 °C"
>>> result("Cc1ccc(/C=N/c2nc(S)nc(O)c2/N=C/c2ccc(C)cc2)cc1")
"181 to 183 °C"
>>> result("Oc1nc(S)nc2nc3[nH]c4ccccc4c3nc12")
"> 320 °C"
>>> result("Nc1nc(S)nc(O)c1/N=C/c1ccc(Cl)cc1")
"> 300 °C"
>>> result("COc1cc(/C=N/c2c(N)nc(S)nc2O)cc(OC)c1OC")
"315 °C"
>>> result("Nc1nc(S)nc(O)c1/N=C/c1ccc([N+](=O)[O-])cc1")
"> 320 °C"
>>> result("Nc1nc(S)nc(O)c1/N=C/c1ccc(O)cc1")
"> 320 °C"

All values here come from patent US9969696B2.
